These data points were gathered from patent US6821980B1.

MIC values by entry
- Tested on: Staphylococcus aureus 101
- EXPERIMENT_SUMMARY: MIC against Staphylococcus aureus 101
- Type: cell-based
- APPLIED_CONDITIONS: Table 2; Staphylococcus aureus 101, MRSA- and trimethoprim-resistant; clinical isolate; read-out: MIC Sa101

{"MOLECULE": "CCOc1cc(Cc2cnc(N)nc2N)cc(OCC)c1-c1ccc(CN2CCCC2)cc1 [Example 04-y]", "MIC": "8 µg/mL"}
{"MOLECULE": "CCOc1cc(Cc2cnc(N)nc2N)cc(OS(=O)(=O)CC2CC2)c1-c1cccc(N)c1 [Example 38-a]", "MIC": "2 µg/mL"}
{"MOLECULE": "CCOc1cc(Cc2cnc(N)nc2N)cc(OS(=O)(=O)N(C)CC)c1-c1ccc(N)c(C)c1 [Example 27-b]", "MIC": "2 µg/mL"}
{"MOLECULE": "CCOc1cc(Cc2cnc(N)nc2N)cc(OS(=O)(=O)CC2CCCO2)c1-c1cccc(N)c1 (centres unmarked) [Example 42-a]", "MIC": "8 µg/mL"}
{"MOLECULE": "CCOc1cc(Cc2cnc(N)nc2N)cc(OCC)c1-c1ccc(CN2CCOCC2)cc1 [Example 02-w]", "MIC": "8 µg/mL"}
{"MOLECULE": "CCOc1cc(Cc2cnc(N)nc2N)cc(OCC2CC2)c1-c1ccc(OS(C)(=O)=O)cc1 [Example 57-]", "MIC": "8 µg/mL"}
{"MOLECULE": "CCOc1cc(Cc2cnc(N)nc2N)cc(OS(=O)(=O)C2CC2)c1-c1ccc(O)cc1 [Example 15-e]", "MIC": "8 µg/mL"}
{"MOLECULE": "CCOc1cc(Cc2cnc(N)nc2N)cc(OCC2(COC)CC2)c1-c1cccc(N)c1 [Example 07-c]", "MIC": "8 µg/mL"}
